All figures here come from ChEMBL document CHEMBL1138608.

The compounds listed here are annotated with their pIC50.
# system under test: Dual specificity calcium/calmodulin-dependent 3',5'-cyclic nucleotide phosphodiesterase 1A (Homo sapiens, UniProt P54750)
# Sequence (P54750 whole entry): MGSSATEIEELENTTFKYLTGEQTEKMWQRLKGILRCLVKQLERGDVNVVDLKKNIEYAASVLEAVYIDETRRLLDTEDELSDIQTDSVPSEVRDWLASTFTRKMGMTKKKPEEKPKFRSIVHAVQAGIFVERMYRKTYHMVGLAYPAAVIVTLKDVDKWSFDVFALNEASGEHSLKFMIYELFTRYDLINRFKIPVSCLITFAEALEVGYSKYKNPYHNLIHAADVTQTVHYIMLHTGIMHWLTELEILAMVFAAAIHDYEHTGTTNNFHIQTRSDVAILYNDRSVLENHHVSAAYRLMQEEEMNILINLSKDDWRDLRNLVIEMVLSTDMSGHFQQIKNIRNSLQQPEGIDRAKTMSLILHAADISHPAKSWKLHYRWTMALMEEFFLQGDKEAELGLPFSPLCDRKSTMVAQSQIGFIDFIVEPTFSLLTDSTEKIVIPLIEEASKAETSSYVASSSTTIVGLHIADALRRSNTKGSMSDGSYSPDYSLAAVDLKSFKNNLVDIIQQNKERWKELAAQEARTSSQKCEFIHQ
# assay info: Inhibition of PDE1a
pIC50: −log10 of the molar value.

Study these solved cases before continuing.
molecule smiles: Cc1ccc(N[C@@H]2CCCC[C@H]2Cc2nc3c(C(C)C)[nH]nc3c(=O)[nH]2)nn1
pIC50: < 5.00
//
molecule smiles: CC(C)c1n[nH]c2c(=O)[nH]c(Cc3ccccc3OC(F)(F)F)nc12
pIC50: 5.60

Q. What value of measured pIC50 is listed for CC(C)c1[nH]nc2c(=O)[nH]c(C[C@@H]3CCCC[C@H]3NC(=O)CC3CCOCC3)nc12 ?
A. < 5.00
